test system: A498 renal; assay: NCI-60 one-dose screen, 48 h; settings: 10 µM unless noted
About 83,000 compounds went through this panel and 20% of them were active in at least one assay; those are over-represented in the sample as a whole. Calls of active or inactive are those of the source. How the source made its calls: active means growth percent below 10; inactive means the rest.
API: response.call in True = active, False = inactive

## Input Each compound tested received a call. Report the one for O=C(Nc1ccc(F)cc1F)c1cc(Br)ccc1O .
## Output True

## Input Repeat for the following compound: Cc1ccc2sc3c(NCCCNCCO)nc4ccccc4c3c(=O)c2c1
## Output False

## Input Repeat for the following compound: Cc1ccc(C2CC(c3ccc(Nc4nc(NCCO)nc(Nc5ccc(Cl)cc5)n4)cc3)=NN2c2cc(Cl)cc(Cl)c2)cc1 (stereo not given)
## Output False

## Input Repeat for the following compound: O=C(Nc1ccc(Cl)cc1)c1cc2ccccc2cc1OP(=O)(O)O
## Output False

## Input Repeat for the following compound: CCn1c(SCC(=O)Nc2cc(C(F)(F)F)ccc2Cl)nc2ccccc2c1=O
## Output False

## Input Repeat for the following compound: O=c1oc2ccc(-c3ccc(F)cc3F)cc2c(=O)n1-c1ccc(Cl)c(C(F)(F)F)c1
## Output True

## Input Repeat for the following compound: O=CCCCC(O)C=O (stereo not given)
## Output False

## Input Repeat for the following compound: O=C(Nc1ccccc1O)c1ccc(Oc2cccc(C(=O)Nc3ccccc3O)c2)cc1
## Output False

## Input Repeat for the following compound: NS(=O)(=O)c1ccc(CCN=C=S)cc1
## Output False

## Input Repeat for the following compound: COc1cc(/C=C/C(=O)c2ccc(Nc3nc(NCCO)nc(N4CCOCC4)n3)cc2)cc(OC)c1OC
## Output True

---

tested on: MOLT-4 leukemia; assay: NCI-60 one-dose screen, 48 h (100 = growth as untreated, 0 = no growth, -100 = all killed); conditions: 10 µM unless noted
This is part of a sample that, as a whole, favours compounds with a hit. Of some 83,000 tested, about 20% had one in any assay.
Classification field: enter criterion met for growth values not below 80%, criterion not met for values below it.

## Input Is reported growth greater than or equal to 80% here: O=NN(Cc1cccnc1)C(=O)NC1CCCCC1
## Output criterion met

## Input Repeat for the following molecule: O=C1/C(=C\c2ccc[nH]2)c2ccccc2N1c1ccccc1
## Output criterion met

## Input Repeat for the following molecule: Cc1ccc(OCCCCCCNCCO)c(C)c1
## Output criterion not met

## Input Repeat for the following molecule: CCN(CC)c1cc(C)c2cc(NC(=O)c3cccc(OC)c3)ccc2n1
## Output criterion not met

## Input Repeat for the following molecule: COC(=O)/C(=C\c1c(-c2ccccc2)[nH]c2ccccc12)S(C)(=O)=O
## Output criterion not met

## Input Repeat for the following molecule: O=C(CSc1ccc2nnc(-c3cccc(F)c3)n2n1)Nc1ccc2c(c1)OCO2
## Output criterion not met

## Input Repeat for the following molecule: O=C(O)c1cn(C2CC2)c2cc(N3CCN(C(=O)C[n+]4ccccc4)CC3)c(F)cc2c1=O
## Output criterion met

## Input Repeat for the following molecule: O=CCCCC(O)C=O (stereo unspecified)
## Output criterion met

## Input Repeat for the following molecule: CN1C(=O)N(C)C2C1NN=c1s/c(=C\c3c[nH]c4ccccc34)c(=O)n12 (stereo unspecified)
## Output criterion not met

---

Exercise: state measured growth for each of the compounds provided.
Test system: M14 melanoma
Assay: NCI-60 one-dose screen, 48 h (100 = growth as untreated, 0 = no growth, -100 = all killed)
Details: 10 µM unless noted
Experimental: Growth inhibition of the M14 human tumor cell line is measured as a screen for anti-cancer activity. Cells are grown in 96 well plates and exposed to the test compound for 48 hours. Compounds are tested at a single concentration, which is 10^-5 M for most compounds. The reported endpoint is percent growth (GI% or GIPRCNT), where numbers from 0 - 100% represent growth inhibition, and numbers from -100% - 0 represent cell death. For example, a value of 40 represents 60% growth inhibition. […]
About 83,000 compounds went through this panel and 20% of them were active in at least one assay; those are over-represented in the sample as a whole.
Numbers only here, please. The scale is %.

## Input Fill in the recorded growth for this compound, with M14 melanoma as test system: COC(=O)C1(C)COP(=O)(Nc2ccc(OC)cc2)OC1 (configuration not stated)
## Output 102

## Input Repeat for the following compound: O=C(Cn1cc(COc2ncnc3c2cnn3-c2ccccc2)nn1)Nc1ccccn1
## Output 97.4

## Input Repeat for the following compound: O=c1c2cc(F)cc(Cl)c2sc2c(Cl)nc3ccccc3c12
## Output 99.5

## Input Repeat for the following compound: O=C(c1ccccc1)N(CCc1ccc(Cl)cc1)C(=S)N(C(=O)c1ccccc1)c1ccccc1
## Output 113

## Input Repeat for the following compound: O=Cc1cc2ccccc2nc1Nc1nccs1
## Output 101

## Input Repeat for the following compound: Cc1ccc(S(=O)c2ccc([N+](=O)[O-])c3nonc23)cc1 (configuration not stated)
## Output 104

## Input Repeat for the following compound: O=C(Nc1ccc(F)cc1F)c1cc(I)ccc1O
## Output 16.7

## Input Repeat for the following compound: COc1ccc(OC)c(/C=C/C(=O)c2c(C)nc3ccccc3c2/C=C/c2ccccc2)c1
## Output 81.5

## Input Repeat for the following compound: Cn1cc([C@@H]2Nc3ccc4[nH]ncc4c3[C@H]3[C@H]4CCC(C4)[C@H]32)c(C(F)(F)F)n1
## Output 27.5

## Input Repeat for the following compound: CCCN1C(=O)N(CCC)C2C1NN=c1s/c(=C3\C(=O)N(C(C)C)c4ccccc43)c(=O)n12 (configuration not stated)
## Output 37.8

## Input Repeat for the following compound: CN1C(=O)N(C)C2C1NN=c1s/c(=C\c3c[nH]c4ccccc34)c(=O)n12 (configuration not stated)
## Output 12.3

## Input Repeat for the following compound: COc1ccc2[nH]c(O)c(N=NC(=O)c3oc4ccccc4c3C)c2c1
## Output 28.7

## Input Repeat for the following compound: O=c1oc2ccc(I)cc2c(=O)n1-c1ccc(Br)cc1F
## Output -0.737

## Input Repeat for the following compound: O=C(CCN1C(=O)c2ccccc2C1=O)Nc1ccc(Cl)cc1
## Output 92.7

## Input Repeat for the following compound: O=C(Nc1ccc(N2CCNCC2)cc1)c1[nH]ncc1Nc1cc(C2CC2)ncn1
## Output 45.3

## Input Repeat for the following compound: N#C/C(=C\c1c(-c2ccccc2)[nH]c2ccccc12)S(=O)(=O)c1ccccc1
## Output 42.8

## Input Repeat for the following compound: Cc1ccc2cccc(Oc3ccc(Nc4ncnc5onc(-c6ccccc6)c45)cc3)c2n1
## Output 84

## Input Repeat for the following compound: Cc1ccc(CN2CCC(C(=O)Nc3ccc(-c4cc5ccccc5[nH]4)cc3)CC2)o1
## Output 41.9

## Input Repeat for the following compound: O=C1Nc2ccccc2/C1=C/c1ccc[nH]1
## Output 89.8

## Input Repeat for the following compound: O=C(Nc1ccc(I)cc1F)c1cc(Cl)ccc1O
## Output -22

## Input Repeat for the following compound: CCCCCCc1cc2cc(-c3csc(/C=C/c4ccccc4)n3)c(=O)oc2cc1O
## Output -58.3

## Input Repeat for the following compound: O=C1c2ccccc2C(=O)c2c1ccc1[nH]c(CCl)nc21
## Output 33.5

## Input Repeat for the following compound: O=C1/C(=C/c2ccc(O)cc2)COc2ccc(O)c(O)c21
## Output 64.7

## Input Repeat for the following compound: COc1ccccc1C(=O)O/N=C(\N)Cc1cccc2ccccc12
## Output 86.3

## Input Repeat for the following compound: Cc1cccc2c(=O)c3c(sc12)c(NCCCNCCO)nc1ccccc13
## Output 35.1

## Input Repeat for the following compound: COc1c2ccoc2c(/C=C/C=O)c2oc(-c3ccccc3)cc(=O)c12
## Output 70.8

## Input Repeat for the following compound: COc1ccc(C2c3ccc4ccccc4c3Oc3ncn(CCCn4ccnc4)c(=N)c32)cc1OC (configuration not stated)
## Output 49.6

## Input Repeat for the following compound: Nc1nc(N)c2c(n1)NC1(C=C(O)c3ccccc31)C1=C(N2)c2ccccc2C1=O (configuration not stated)
## Output 105

## Input Repeat for the following compound: Cc1nc2ccccc2c(/C=C/c2ccc(F)cc2)c1C(N)=O
## Output 103

## Input Repeat for the following compound: CC(C)CCNCC(O)Cn1c2ccccc2c2ccccc21 (configuration not stated)
## Output 11.8

## Input Repeat for the following compound: COc1cc(/C=C2\CN(C)C/C(=C\c3cc(CN4CCOCC4)c(O)c(OC)c3)C2=O)cc(CN2CCOCC2)c1O
## Output 66.4

## Input Repeat for the following compound: O=C(/C=C/c1ccc(C(F)(F)F)cc1)c1ccc(Nc2nc(NCCO)nc(N3CCOCC3)n2)cc1
## Output 37.5

## Input Repeat for the following compound: Cc1ccccc1CNC(=O)C1CN(c2ccc(Cl)cc2)N(c2ccc(Cl)cc2)C1=O (configuration not stated)
## Output 90.1

## Input Repeat for the following compound: CCN1C(=O)N(c2ccccc2)C2NN=c3s/c(=C4\C(=O)N(C(C)C)c5ccccc54)c(=O)n3C21 (configuration not stated)
## Output 10.9

## Input Repeat for the following compound: Nc1nonc1-n1nncc1-c1cccnc1
## Output 104

## Input Repeat for the following compound: Nc1cccc(Nc2cc(S(=O)(=O)O)c(N)c3c2C(=O)c2ccccc2C3=O)c1
## Output 103

## Input Repeat for the following compound: COc1nccc2cc3c(=O)n4c(cc5ccccc54)c(=O)n3c12
## Output 97.2

## Input Repeat for the following compound: O=C(NCCCN1CCC(N2CCCCC2)CC1)C1=Cc2cc(Br)ccc2OC1
## Output 38.7

## Input Repeat for the following compound: CN1CCN(c2nc(Nc3ccc(O)cc3)nc3ccccc23)CC1
## Output 50.3

## Input Repeat for the following compound: CCN(CCO)CCNc1ccc(C)c2sc3cc(Cl)ccc3c(=O)c12
## Output -74.2

## Input Repeat for the following compound: COc1cc(NC(=O)CCSc2nc3ccccc3c(=O)n2Cc2ccccc2)cc(OC)c1OC
## Output 94.7

## Input Repeat for the following compound: COc1ccc(-c2nc(-c3ccccc3)c(-c3ccccc3)[nH]2)cc1OC1CCCCC1
## Output 92.2

Where do these numbers come from? They come from PubChem BioAssay (NCI).
